# measurementTarget: T1, human Trop-2 expressed on cell surface (human, UniProt P09758 27-323)
# T1 construct: whole, on cells; also called cell surface Trop-2
# T1 sequence (looked up): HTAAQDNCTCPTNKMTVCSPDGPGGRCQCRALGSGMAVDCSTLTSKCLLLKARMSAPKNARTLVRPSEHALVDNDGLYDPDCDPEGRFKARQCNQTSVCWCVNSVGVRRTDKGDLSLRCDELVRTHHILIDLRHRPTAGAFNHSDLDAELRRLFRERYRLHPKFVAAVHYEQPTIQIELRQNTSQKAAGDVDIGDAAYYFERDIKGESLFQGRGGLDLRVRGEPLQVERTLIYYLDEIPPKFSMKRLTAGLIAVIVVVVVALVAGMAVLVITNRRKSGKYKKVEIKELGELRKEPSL
# protocolDescription: flow cytometry, MDA-MB-231-GFP cells
pEC50: −log10 of the molar value.
observationType: pEC50

binder="5D4-2 (antibody, V domains shown) VH: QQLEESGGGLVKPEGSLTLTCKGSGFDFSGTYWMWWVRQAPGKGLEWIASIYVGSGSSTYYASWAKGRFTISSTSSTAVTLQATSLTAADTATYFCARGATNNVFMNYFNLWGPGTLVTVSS VL: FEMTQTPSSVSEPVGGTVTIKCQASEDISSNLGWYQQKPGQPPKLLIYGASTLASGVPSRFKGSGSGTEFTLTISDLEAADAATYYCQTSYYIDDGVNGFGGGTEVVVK" observationtype=pEC50 value=10.40
binder="9F7 (antibody, V domains shown, Rabbit-derived clone; LEM construct: VH + rabbit IgG CH1 + human IgG1 CH2-CH3) VH: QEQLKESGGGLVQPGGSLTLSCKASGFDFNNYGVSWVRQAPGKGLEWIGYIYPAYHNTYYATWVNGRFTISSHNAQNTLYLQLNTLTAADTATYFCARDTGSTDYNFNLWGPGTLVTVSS VL: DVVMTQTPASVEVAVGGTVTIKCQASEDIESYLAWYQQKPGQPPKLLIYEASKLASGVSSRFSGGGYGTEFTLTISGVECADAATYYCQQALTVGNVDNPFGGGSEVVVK" observationtype=pEC50 value=10.52
binder="10A9-2 (antibody, V domains shown) VH: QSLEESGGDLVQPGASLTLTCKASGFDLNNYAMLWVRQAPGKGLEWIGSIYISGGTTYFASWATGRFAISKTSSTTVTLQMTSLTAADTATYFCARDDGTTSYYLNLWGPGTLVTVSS VL: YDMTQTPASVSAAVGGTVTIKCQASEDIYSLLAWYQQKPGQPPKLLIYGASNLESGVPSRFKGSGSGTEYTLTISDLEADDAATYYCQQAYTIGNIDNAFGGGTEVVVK" observationtype=pEC50 value=10.40
binder="9D7 (antibody, V domains shown, Rabbit-derived clone; LEM construct: VH + rabbit IgG CH1 + human IgG1 CH2-CH3) VH: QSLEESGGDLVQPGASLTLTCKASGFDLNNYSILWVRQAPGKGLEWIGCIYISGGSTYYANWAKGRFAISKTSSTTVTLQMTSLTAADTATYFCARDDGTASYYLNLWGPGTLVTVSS VL: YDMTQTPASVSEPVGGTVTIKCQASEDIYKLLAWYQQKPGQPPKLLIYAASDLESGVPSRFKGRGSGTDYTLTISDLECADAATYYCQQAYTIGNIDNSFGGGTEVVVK" observationtype=pEC50 value=10.52
binder="62E3 (antibody, V domains shown, Rabbit-derived clone; LEM construct: VH + rabbit IgG CH1 + human IgG1 CH2-CH3) VH: QEQLKESGGGLVQPGGSLKLSCKASGFDFNEYGVSWVRQAPGKGLEWIAYIYPAFHNTYYATWVNGRFTISSHNAQNTLYLQLNTLTAADTATYFCARDAGTTDYNFNLWGPGTLVTVSS VL: DVVMTQTASPVSAAVGGTVTIKCQASEDIESYLAWYQQKPGQPPKLLIYEASKLASGVSSRFSGSGYGTEFTLTISGVECADAATYYCQQALTIGNVDNPFGGGSEVVVK" observationtype=pEC50 value=11.00
